Entries and their MIC
Tested on: Mycobacterium tuberculosis
Assay method text: Antimycobacterial activity against INH, RIF, rifabutin, streptomycin, ethambutol, clofazimine-resistant Mycobacterium tuberculosis Praha 1 after 21 days by microdilution method
Format: functional
Particulars: Praha 1, 504 h
Experimental readout: MIC (µM)

Query smiles: Cc1ccc(C(=O)Oc2ccc(Cl)cc2C(=O)Nc2ccc(C(F)(F)F)cc2)cc1
Result unit: µM
Experimental result: 1
//
Query smiles: O=C(Oc1ccc(Br)cc1C(=O)Nc1ccc(C(F)(F)F)cc1)c1ccccc1
Result unit: µM
Experimental result: 1
//
Query smiles: O=C(Oc1ccc(Cl)cc1C(=O)Nc1ccc(C(F)(F)F)cc1)c1ccc(C(F)(F)F)cc1
Result unit: µM
Experimental result: 0.5
//
Query smiles: O=C(Oc1ccc(Cl)cc1C(=O)Nc1ccc(C(F)(F)F)cc1)c1ccc(Br)cc1
Result unit: µM
Experimental result: 1
//
Query smiles: O=C(Oc1ccc(Br)cc1C(=O)Nc1ccc(C(F)(F)F)cc1)c1ccc(C(F)(F)F)cc1
Result unit: µM
Experimental result: 1
//
Query smiles: O=C(Oc1ccc(Cl)cc1C(=O)Nc1ccc(Cl)c(Cl)c1)c1ccc(C(F)(F)F)cc1
Result unit: µM
Experimental result: 2
//
Query smiles: Cc1ccc(C(=O)Oc2ccc(Br)cc2C(=O)Nc2ccc(C(F)(F)F)cc2)cc1
Result unit: µM
Experimental result: 1
//
Query smiles: O=C(Oc1ccc(Cl)cc1C(=O)Nc1ccc(Cl)c(Cl)c1)c1ccccc1
Result unit: µM
Experimental result: 0.5
//
Query smiles: O=C(Oc1ccc(Cl)cc1C(=O)Nc1ccc(C(F)(F)F)cc1)c1ccc([N+](=O)[O-])cc1
Result unit: µM
Experimental result: 1
//
Query smiles: Cc1ccc(C(=O)Oc2ccc(Cl)cc2C(=O)Nc2ccc(Cl)c(Cl)c2)cc1
Result unit: µM
Experimental result: 1
//
Query smiles: O=C(Oc1ccc(Cl)cc1C(=O)Nc1ccc(C(F)(F)F)cc1)c1ccccc1
Result unit: µM
Experimental result: 0.5

----------
Item-by-item account of MIC
Test system: Mycobacterium tuberculosis
Assay method text: Antimycobacterial activity against INH, RIF, rifabutin, streptomycin, ethambutol, ofloxacin, clofazimine-resistant Mycobacterium tuberculosis Praha 4 after 21 days by microdilution method
Type: functional
Particulars: Praha 4, 504 h

Query smiles: O=C(Oc1ccc(Br)cc1C(=O)Nc1ccc(C(F)(F)F)cc1)c1ccc(Br)cc1
MIC / µM: 0.5
//
Query smiles: Cc1ccc(C(=O)Oc2ccc(Cl)cc2C(=O)Nc2ccc(C(F)(F)F)cc2)cc1
MIC / µM: 1
//
Query smiles: O=C(Oc1ccc(Cl)cc1C(=O)Nc1ccc(Cl)c(Cl)c1)c1ccc(Br)cc1
MIC / µM: 0.5
//
Query smiles: Cc1ccc(C(=O)Oc2ccc(Cl)cc2C(=O)Nc2ccc(Cl)c(Cl)c2)cc1
MIC / µM: 1
//
Query smiles: O=C(Oc1ccc(Cl)cc1C(=O)Nc1ccc(Cl)c(Cl)c1)c1ccc([N+](=O)[O-])cc1
MIC / µM: 0.5
//
Query smiles: O=C(Oc1ccc(Cl)cc1C(=O)Nc1ccc(C(F)(F)F)cc1)c1ccc([N+](=O)[O-])cc1
MIC / µM: 1
//
Query smiles: Cc1ccc(C(=O)Oc2ccc(Br)cc2C(=O)Nc2ccc(C(F)(F)F)cc2)cc1
MIC / µM: 1
//
Query smiles: O=C(Oc1ccc(Br)cc1C(=O)Nc1ccc(C(F)(F)F)cc1)c1ccc([N+](=O)[O-])cc1
MIC / µM: 0.5

----------
Tested on: Mycobacterium tuberculosis
Assay method text: Antimycobacterial activity against INH, RIF, rifabutin, streptomycin, ethambutol, ofloxacin, gentamicin, amikacin-resistant Mycobacterium tuberculosis Praha 131 after 14 days by microdilution method
Assay type: functional
Particulars: Praha 131, 336 h
MIC values, listed per item

Query smiles: O=C(Oc1ccc(Br)cc1C(=O)Nc1ccc(C(F)(F)F)cc1)c1ccccc1
MIC [µM]: 0.5

Query smiles: O=C(Oc1ccc(Cl)cc1C(=O)Nc1ccc(Cl)c(Cl)c1)c1ccc([N+](=O)[O-])cc1
MIC [µM]: 0.25

Query smiles: O=C(Oc1ccc(Br)cc1C(=O)Nc1ccc(C(F)(F)F)cc1)c1ccc(Br)cc1
MIC [µM]: 0.5

Query smiles: O=C(Oc1ccc(Cl)cc1C(=O)Nc1ccc(C(F)(F)F)cc1)c1ccc(Br)cc1
MIC [µM]: 1

Query smiles: O=C(Oc1ccc(Br)cc1C(=O)Nc1ccc(C(F)(F)F)cc1)c1ccc([N+](=O)[O-])cc1
MIC [µM]: 0.25

Query smiles: O=C(Oc1ccc(Cl)cc1C(=O)Nc1ccc(Cl)c(Cl)c1)c1ccc(Br)cc1
MIC [µM]: 0.25

Query smiles: Cc1ccc(C(=O)Oc2ccc(Cl)cc2C(=O)Nc2ccc(C(F)(F)F)cc2)cc1
MIC [µM]: 1

Query smiles: O=C(Oc1ccc(Cl)cc1C(=O)Nc1ccc(Cl)c(Cl)c1)c1ccccc1
MIC [µM]: 0.5

Query smiles: O=C(Oc1ccc(Cl)cc1C(=O)Nc1ccc(C(F)(F)F)cc1)c1ccc([N+](=O)[O-])cc1
MIC [µM]: 0.5

Query smiles: O=C(Oc1ccc(Cl)cc1C(=O)Nc1ccc(Cl)c(Cl)c1)c1ccc(C(F)(F)F)cc1
MIC [µM]: 2

Query smiles: O=C(Oc1ccc(Cl)cc1C(=O)Nc1ccc(C(F)(F)F)cc1)c1ccc(C(F)(F)F)cc1
MIC [µM]: 0.5

Query smiles: Cc1ccc(C(=O)Oc2ccc(Br)cc2C(=O)Nc2ccc(C(F)(F)F)cc2)cc1
MIC [µM]: 1

Query smiles: O=C(Oc1ccc(Br)cc1C(=O)Nc1ccc(C(F)(F)F)cc1)c1ccc(C(F)(F)F)cc1
MIC [µM]: 0.5

Query smiles: O=C(Oc1ccc(Cl)cc1C(=O)Nc1ccc(C(F)(F)F)cc1)c1ccccc1
MIC [µM]: 0.25

Query smiles: Cc1ccc(C(=O)Oc2ccc(Cl)cc2C(=O)Nc2ccc(Cl)c(Cl)c2)cc1
MIC [µM]: 1

----------
Test system: Mycobacterium tuberculosis
Assay method text: Antimycobacterial activity against INH, RIF, rifabutin, streptomycin, ethambutol, ofloxacin-resistant Mycobacterium tuberculosis 234/2005 after 14 days by microdilution method
Type: functional
Particulars: 234/2005, 336 h

Query smiles: Cc1ccc(C(=O)Oc2ccc(Cl)cc2C(=O)Nc2ccc(Cl)c(Cl)c2)cc1
Result unit: µM
MIC: 2
--
Query smiles: O=C(Oc1ccc(Br)cc1C(=O)Nc1ccc(C(F)(F)F)cc1)c1ccccc1
Result unit: µM
MIC: 0.5
--
Query smiles: O=C(Oc1ccc(Cl)cc1C(=O)Nc1ccc(Cl)c(Cl)c1)c1ccc(C(F)(F)F)cc1
Result unit: µM
MIC: 1
--
Query smiles: O=C(Oc1ccc(Cl)cc1C(=O)Nc1ccc(Cl)c(Cl)c1)c1ccccc1
Result unit: µM
MIC: 0.25
--
Query smiles: Cc1ccc(C(=O)Oc2ccc(Cl)cc2C(=O)Nc2ccc(C(F)(F)F)cc2)cc1
Result unit: µM
MIC: 2
--
Query smiles: O=C(Oc1ccc(Cl)cc1C(=O)Nc1ccc(C(F)(F)F)cc1)c1ccc(Br)cc1
Result unit: µM
MIC: 2
--
Query smiles: O=C(Oc1ccc(Cl)cc1C(=O)Nc1ccc(C(F)(F)F)cc1)c1ccc([N+](=O)[O-])cc1
Result unit: µM
MIC: 0.25
--
Query smiles: O=C(Oc1ccc(Br)cc1C(=O)Nc1ccc(C(F)(F)F)cc1)c1ccc(C(F)(F)F)cc1
Result unit: µM
MIC: 0.5
--
Query smiles: O=C(Oc1ccc(Cl)cc1C(=O)Nc1ccc(C(F)(F)F)cc1)c1ccc(C(F)(F)F)cc1
Result unit: µM
MIC: 0.5
--
Query smiles: Cc1ccc(C(=O)Oc2ccc(Br)cc2C(=O)Nc2ccc(C(F)(F)F)cc2)cc1
Result unit: µM
MIC: 2
--
Query smiles: O=C(Oc1ccc(Cl)cc1C(=O)Nc1ccc(C(F)(F)F)cc1)c1ccccc1
Result unit: µM
MIC: 0.25

----------
System: Mycobacterium tuberculosis
Assay method text: Antimycobacterial activity against INH, RIF, rifabutin, streptomycin, ethambutol, ofloxacin-resistant Mycobacterium tuberculosis 7357/1998 after 21 days by microdilution method
Type: functional
Particulars: 7357/1998, 504 h

Query smiles: O=C(Oc1ccc(Cl)cc1C(=O)Nc1ccc(C(F)(F)F)cc1)c1ccc(Br)cc1
MIC, µM: 1
--
Query smiles: O=C(Oc1ccc(Cl)cc1C(=O)Nc1ccc(Cl)c(Cl)c1)c1ccccc1
MIC, µM: 0.5
--
Query smiles: O=C(Oc1ccc(Cl)cc1C(=O)Nc1ccc(Cl)c(Cl)c1)c1ccc(Br)cc1
MIC, µM: 0.125
--
Query smiles: Cc1ccc(C(=O)Oc2ccc(Br)cc2C(=O)Nc2ccc(C(F)(F)F)cc2)cc1
MIC, µM: 1
--
Query smiles: O=C(Oc1ccc(Cl)cc1C(=O)Nc1ccc(C(F)(F)F)cc1)c1ccc([N+](=O)[O-])cc1
MIC, µM: 1
--
Query smiles: O=C(Oc1ccc(Cl)cc1C(=O)Nc1ccc(Cl)c(Cl)c1)c1ccc([N+](=O)[O-])cc1
MIC, µM: 0.5
--
Query smiles: O=C(Oc1ccc(Cl)cc1C(=O)Nc1ccc(C(F)(F)F)cc1)c1ccc(C(F)(F)F)cc1
MIC, µM: 1
--
Query smiles: O=C(Oc1ccc(Br)cc1C(=O)Nc1ccc(C(F)(F)F)cc1)c1ccccc1
MIC, µM: 0.5
--
Query smiles: O=C(Oc1ccc(Br)cc1C(=O)Nc1ccc(C(F)(F)F)cc1)c1ccc(Br)cc1
MIC, µM: 1
--
Query smiles: O=C(Oc1ccc(Cl)cc1C(=O)Nc1ccc(Cl)c(Cl)c1)c1ccc(C(F)(F)F)cc1
MIC, µM: 2
--
Query smiles: Cc1ccc(C(=O)Oc2ccc(Cl)cc2C(=O)Nc2ccc(C(F)(F)F)cc2)cc1
MIC, µM: 1
--
Query smiles: O=C(Oc1ccc(Br)cc1C(=O)Nc1ccc(C(F)(F)F)cc1)c1ccc([N+](=O)[O-])cc1
MIC, µM: 0.5
--
Query smiles: O=C(Oc1ccc(Br)cc1C(=O)Nc1ccc(C(F)(F)F)cc1)c1ccc(C(F)(F)F)cc1
MIC, µM: 1
--
Query smiles: O=C(Oc1ccc(Cl)cc1C(=O)Nc1ccc(C(F)(F)F)cc1)c1ccccc1
MIC, µM: 0.5
--
Query smiles: Cc1ccc(C(=O)Oc2ccc(Cl)cc2C(=O)Nc2ccc(Cl)c(Cl)c2)cc1
MIC, µM: 1
